Origin of values: paper PMC5053523

system: Vancomycin Resistant Staphylococcus aureus (VRSA); experiment: Broth microdilution MIC/MBC, VRSA; type: cell-based; settings: VRSA, VRSA 5, read-out: MIC
observation.type: MIC (µM)
Answers are plain numbers, in µM.

Some compounds with recorded MIC:
structure.notation: O=C(O)[C@@H](Cc1ccccc1)N1C(=O)/C(=C/c2cccc(Cc3ccccc3)c2)SC1=S
observation.type: MIC
measurement.unit: µM
measured: 8

structure.notation: O=C(O)[C@H](Cc1ccccc1)N1C(=O)/C(=C/c2cccc(Cc3ccc(Cl)c(Cl)c3)c2)SC1=S
observation.type: MIC
measurement.unit: µM
measured: 8

structure.notation: O=C(O)[C@@H](Cc1ccccc1)N1C(=O)/C(=C/c2cccc(Oc3ccc(F)cc3)c2)SC1=S
observation.type: MIC
measurement.unit: µM
measured: 16

structure.notation: O=C(O)[C@H](Cc1ccccc1)N1C(=O)/C(=C/c2cccc(Oc3ccc(Cl)c(Cl)c3)c2)SC1=S
observation.type: MIC
measurement.unit: µM
measured: 8

structure.notation: O=C(O)[C@H](Cc1ccccc1)N1C(=O)/C(=C/c2cccc(-c3ccccc3)c2)SC1=S
observation.type: MIC
measurement.unit: µM
measured: 8

structure.notation: O=C(O)[C@H](Cc1ccccc1)N1C(=O)/C(=C/c2cccc(-c3ccc(Cl)c(Cl)c3)c2)SC1=S
observation.type: MIC
measurement.unit: µM
measured: 4

Okay, next one:
Tell me its MIC on Vancomycin Resistant Staphylococcus aureus (VRSA): O=C(O)[C@H](Cc1ccccc1)N1C(=O)/C(=C/c2cccc(OC/C=C/c3ccc(Cl)c(Cl)c3)c2)SC1=S
4

---

Assignment: determine reported MIC for the given compounds.
test system: B. cereus; test: Broth microdilution MIC/MBC, B. cereus; type: cell-based; conditions: Bacillus cereus, NRS201, B. cereus NRS 201 NR-2488; read-out: MIC
Give bare numbers, in µM.

compound: O=C(O)[C@@H](Cc1ccccc1)N1C(=O)/C(=C/c2cccc(Cc3ccccc3)c2)SC1=S
measured: 4
//
compound: O=C(O)[C@H](Cc1ccccc1)N1C(=O)/C(=C/c2cccc(Cc3ccc(Cl)c(Cl)c3)c2)SC1=S
measured: 4
//
compound: CC(=O)NC[C@H]1CN(c2ccc(N3CCOCC3)c(F)c2)C(=O)O1 [Linezolid, linezolid, reference compound]
measured: 2

State measured MIC of the compound O=C(O)[C@H](Cc1ccccc1)N1C(=O)/C(=C/c2cccc(-c3ccccc3)c2)SC1=S with B. cereus.
4

---

I'd appreciate it if you could supply MIC values for the items below.
test system: Acinetobacter baumannii; experiment: Broth microdilution MIC, Acinetobacter baumannii; format: cell-based; conditions: ATCC17786

structure.notation: O=C(O)[C@H](Cc1ccccc1)N1C(=O)/C(=C/c2cccc(-c3ccc(Cl)c(Cl)c3)c2)SC1=S
MIC: > 128 µM
--
structure.notation: O=C(O)[C@H](Cc1ccccc1)N1C(=O)/C(=C/c2cccc(Cc3ccc(Cl)c(Cl)c3)c2)SC1=S
MIC: > 128 µM
--
structure.notation: O=C(O)[C@H](Cc1ccccc1)N1C(=O)/C(=C/c2cccc(Oc3ccc(Cl)c(Cl)c3)c2)SC1=S
MIC: > 128 µM
--
structure.notation: O=C(O)[C@@H](Cc1ccccc1)N1C(=O)/C(=C/c2cccc(Oc3ccc(F)cc3)c2)SC1=S
MIC: > 128 µM
--
structure.notation: O=C(O)[C@@H](Cc1ccccc1)N1C(=O)/C(=C/c2cccc(Cc3ccccc3)c2)SC1=S
MIC: > 128 µM

Could I get MIC for every one of these entries?
1. O=C(O)[C@H](Cc1ccccc1)N1C(=O)/C(=C/c2cccc(-c3ccccc3)c2)SC1=S
2. O=C(O)[C@H](Cc1ccccc1)N1C(=O)/C(=C/c2cccc(OC/C=C/c3ccc(Cl)c(Cl)c3)c2)SC1=S

> 128 µM
> 128 µM
